The reported numbers originate from paper PMC4072508.

Here, each record is paired with measured SPOT signal as a fraction of Bim BH3's signal on the same receptor and array data.
Target: T1, Mcl-1, Q07820
T1 chain: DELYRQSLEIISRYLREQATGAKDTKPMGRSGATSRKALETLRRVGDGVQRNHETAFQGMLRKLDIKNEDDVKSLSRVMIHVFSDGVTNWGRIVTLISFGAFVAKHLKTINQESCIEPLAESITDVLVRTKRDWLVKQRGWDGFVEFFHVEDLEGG
Assay: peptide SPOT array, c-Myc-tagged receptor at 1 uM or 100 nM, anti-c-Myc-Cy3
Response field accepts a number only; no unit should be typed.

Solved cases (3 shown):
binder	quantitative readout
AYKTVEVVESIEKISTESIQTYEETA [BFSP1]	0.01
SKEVAILCSFLLGLLDSCFNTQLLSI [MFSD11]	0.05
SAGVPVRGVEDQAAAERFARCFGRTD [TIGD7]	0.02

Item under review: NKSLTTLGLVISSLLDQAAGKGKSKF [KIF13A] . Reported SPOT signal as a fraction of Bim BH3's signal on the same receptor and array? 0.18

Item under review: SSEEITVAGNLEKSAERSTQGLKFHL [RSC1A1] . Reported SPOT signal as a fraction of Bim BH3's signal on the same receptor and array? 0.01
